Origin of measurements: patent US20240190866A1

Catalogue of compounds with associated ALT
Test: Serum biochemistry assay in Huh7 xenograft mice
Type: in vivo, NOD-SCID mice
Conditions: serum, 30 mg/kg i.p., twice a week
The answer is to be given in U/L; state only the numeric part.

Recorded ALT (compound CCC[C@H]1CC[C@H](c2ccc(NC(=S)NC[C@@H]3[C@@H](O)[C@@H](O)[C@H]4[C@H](O)CCCN43)cc2)CC1 [ACK900] ): 101.57

Recorded ALT (compound CNC(=O)c1cc(Oc2ccc(NC(=O)Nc3ccc(Cl)c(C(F)(F)F)c3)cc2)ccn1 [Sorafenib, sorafenib, reference compound] ): 61.33

Recorded ALT (compound CCCCCC[C@H]1CC[C@H](c2ccc(NC(=S)NC[C@@H]3[C@@H](O)[C@@H](O)[C@H]4[C@H](O)CCCN43)cc2)CC1 [ACK901] ): 74.85

Recorded ALT (compound CCC[C@H]1CC[C@H](c2ccc(C(=O)NC[C@@H]3[C@@H](O)[C@@H](O)[C@H]4[C@H](O)CCCN43)cc2)CC1 [ACK902] ): 64.42
